FYI, the data here is from paper PMC9338942.

Below, each entry is listed with its recorded CC50.
Assay: in vitro
Conditions: African green monkey

[[record]]
molecule = "CCN(CC)CCCC(C)Nc1ccnc2cc(Cl)ccc12 (centres unmarked)"
measured = "> 150 µM"


Here's the next entry for you.
**Q:** Fill in reported CC50 for this entry: CCC(CC)COC(=O)[C@H](C)N[P@](=O)(OC[C@H]1O[C@@](C#N)(c2ccc3c(N)ncnn23)[C@H](O)[C@@H]1O)Oc1ccccc1
**A:** > 50 µM

---

Below, each entry is listed with its recorded CC50.
System: vero cells
Details: vero cells, assay with Beta var (B.1.351)

[[record]]
compound = "CCN(CC)CCCC(C)Nc1ccnc2cc(Cl)ccc12 (centres unmarked)"
measured = "> 150 µM"


Here's the next entry for you.
**Q:** Fill in reported CC50 for this entry: CCC(CC)COC(=O)[C@H](C)N[P@](=O)(OC[C@H]1O[C@@](C#N)(c2ccc3c(N)ncnn23)[C@H](O)[C@@H]1O)Oc1ccccc1
**A:** > 50 µM
